tested on: CAKI-1 renal; assay: NCI-60 one-dose screen, 48 h (100 = growth as untreated, 0 = no growth, -100 = all killed); conditions: 10 µM unless noted
The panel holds about 83,000 compounds, 20% with a hit somewhere; the sample as a whole holds those more often. Active and inactive are the calls of the source. Rule for the calls: active = growth percent below 10; inactive = the rest.
Reported growth values follow for various molecules

molecule	growth
Brc1ccc(Br)nn1	-92.3% (active)
COc1ccc(NS(=O)(=O)c2ccc(-c3cnc(C4CC4)o3)cc2)cc1	48.3% (inactive)
Clc1ccc(Nc2nc(Nc3ccccc3)nc(Nc3ccc(-c4cc(-c5ccc(Cl)cc5)on4)cc3)n2)cc1	48.2% (inactive)
COc1ccc(CSc2nc3cc(OC)c(OC)cc3c(=O)n2-c2ccc(Cl)cc2)cc1	91.2% (inactive)
COc1ccccc1-n1c(SCc2cc(OC)c(OC)c(OC)c2)nc2ccc(Cl)cc2c1=O	42.6% (inactive)
Cc1cccc2c(=O)c3c(sc12)c(NCCCN)nc1ccccc13	4.76% (active)
COc1nc2c(cc1S(=O)(=O)c1ccccc1)CCc1c-2cnn1-c1ccccc1Cl	49.9% (inactive)
Cc1ccc(S(=O)(=O)c2ccc3[nH]c(=O)[nH]c(=O)c3c2)cc1	97.1% (inactive)
C=C1CC[C@@H]2[C@@](C)(CCC[C@]2(C)C(=O)O)[C@@H]1CC[C@H](CO)CCO	101% (inactive)
Cc1ccc2c(c1)c(Sc1ccc(C(=O)NO)cc1)c1n2CN(C)CC1	62.9% (inactive)
COc1cccc2c(=O)c3c(sc12)c(NCCN(C)C)nc1ccccc13	26.2% (inactive)
O=c1[nH]c(=O)n(Cc2ccc(F)cc2)cc1F	95.3% [50 µM] (inactive)
COc1cc(-c2ccc3cc(OC)c(OC)c(OC)c3c2)cc(OC)c1OC	42.5% (inactive)
O=C1NC(=O)C(CSc2ccccc2)(c2ccccc2)N1 (configuration not stated)	87.7% (inactive)
CN1CCN(C)c2cncc(Br)c2C1=O	-89.3% (active)
N#Cc1ccc(C(F)(F)F)nc1N1CCC(C(=O)Nc2ccc(Cl)cc2)CC1	73.1% (inactive)
O=C(Nc1ccccc1O)c1ccc(NS(=O)(=O)c2cccc3cccnc23)cc1	44.7% (inactive)
CC(=O)OCC1O[C@@H]([S-])C(OC(C)=O)[C@H](OC(C)=O)[C@@H]1OC(C)=O.[Au+].c1ccc(CN2[CH-]N(Cc3ccccc3)C(c3ccccc3)=C2c2ccccc2)cc1	49.9% (inactive)
NC(=O)c1cc(I)ccc1NC(=O)COc1ccc(Cl)cc1Cl	88.8% (inactive)
C=C[C@H]1C[C@@H]2C[C@@H]3[C@H]4C/C=C\C(=O)NCCCC5NC(=O)C(=C(O)/C=C/[C@@H]4CC(=O)[C@H]3[C@@H]2[C@H]1C)C5=O (some centres not stated)	29% (inactive)
COc1cc(C2=NN(c3ccc(S(N)(=O)=O)cc3)C(c3ccc(Cl)cc3)C2)cc(OC)c1OC (configuration not stated)	53.3% (inactive)
Cc1nc2cc(Nc3nc(N4CCCCC4)nc(N4CCOCC4)n3)ccc2n1Cc1ccccc1	63.3% (inactive)
